Values were extracted from patent US7981926B2.

Entries and their pIC50
- Tested on: MCF7 (mammary carcinoma)
- assayRemarks: Tumor growth inhibitory activity (cytotoxicity), SRB method of Skehan et al, MCF7
- Format: cell-based, human
- measurementSetup: Homo sapiens, MCF7, 72 h, read-out: IC50 MCF7 (breast)
- Experimental: The results were obtained according to the methods of Skehan et al (See Skehan et al., J. Nat. Cancer Inst., 82, 1107 (1990)), as more fully described in the Examples. The resistance factor (R/S) shown in the table is a measure of the degree of resistance of a cell line against a taxoid compound. […] Assessment of cell growth inhibition was determined according to the methods of Skehan et al (See Skehan et al., J. Nat. Cancer Inst., 82, 1107 (1990)). […] Optical density was measured at 570 nm. […]
When answering, recall that pIC50 equals minus log10 of the concentration in mol/L, and write that number alone.

Example entries and their recorded answers appear below.
1) CC(=O)O[C@@]12CO[C@@H]1C[C@H](O)[C@@]1(C)C(=O)[C@H](OC(=O)N(C)C)C3=C(C)[C@@H](OC(=O)[C@H](O)[C@H](C=C(F)F)NC(=O)OC(C)(C)C)C[C@@](O)([C@@H](OC(=O)c4cccc(N=[N+]=[N-])c4)C12)C3(C)C (some centres unmarked)	9.89
2) CC(=O)O[C@@]12CO[C@@H]1C[C@H](O)[C@@]1(C)C(=O)[C@H](OC(=O)N(C)C)C3=C(C)[C@@H](OC(=O)[C@H](O)[C@H](C=C(F)F)NC(=O)OC(C)(C)C)C[C@@](O)([C@@H](OC(=O)c4ccccc4)C12)C3(C)C (some centres unmarked)	9.89
3) COc1cccc(C(=O)O[C@H]2C3[C@](C)(C(=O)[C@H](OC(=O)N(C)C)C4=C(C)[C@@H](OC(=O)[C@H](O)[C@H](C=C(F)F)NC(=O)OC(C)(C)C)C[C@]2(O)C4(C)C)[C@@H](O)C[C@H]2OC[C@@]32OC(C)=O)c1 (some centres unmarked)	9.96
4) CC(=O)O[C@@]12CO[C@@H]1C[C@H](O)[C@@]1(C)C(=O)[C@H](OC(=O)N(C)C)C3=C(C)[C@@H](OC(=O)[C@H](O)[C@H](C=C(F)F)NC(=O)OC(C)(C)C)C[C@@](O)([C@@H](OC(=O)c4cccc(F)c4)C12)C3(C)C (some centres unmarked)	9.77

Query molecule follows.
// pIC50 value for CC(=O)O[C@@]12CO[C@@H]1C[C@H](O)[C@@]1(C)C(=O)[C@H](OC(=O)N(C)C)C3=C(C)[C@@H](OC(=O)[C@H](O)[C@H](C=C(F)F)NC(=O)OC(C)(C)C)C[C@@](O)([C@@H](OC(=O)c4cccc(Cl)c4)C12)C3(C)C (some centres unmarked) : 9.03
